Origin of values: patent US20120053148A1

- System: HCV Replicon IB
- Assay: HCV replicon assay in Huh-7 cells, genotype 1b (Rluc luciferase readout)
- Format: cell-based, hepatitis C virus
- Measurement context: Hepatitis C virus, 72 h; 10 uM; 1b-Rluc replicon, Huh-7 cells, 3 days; read-out: Inhibition @ 10 uM in 1b-Rluc
What inhibition at 10 µM was measured for each of the following?

[in] // returns reported inhibition at 10 µM for input Cc1cc(C(=O)NCCCO)nc2c(C(F)(F)F)cc(-c3ccccc3)cc12 [Compound 164]
[out] 94.6%

[in] // returns reported inhibition at 10 µM for input Cc1cc(-c2nnc(NCCCCCO)o2)nc2c(C(F)(F)F)cc(C3CC3)cc12 [Compound 259]
[out] 98.4%

[in] // returns reported inhibition at 10 µM for input COCCCNC(=O)c1cc(C)c2cc(C3CC3)cc(C(F)(F)F)c2n1 [Compound 120]
[out] 99.8%

[in] // returns reported inhibition at 10 µM for input CC(C)(C)c1cc(C2CC2)cc2c(N)cc(C(=O)NCc3ccccn3)nc12 [Compound 230]
[out] 100%

[in] // returns reported inhibition at 10 µM for input Cc1cc(C(=O)NCC2(O)CC2)nc2c(C(F)(F)F)cc(C3CC3)cc12 [Compound 97]
[out] 98.8%

[in] // returns reported inhibition at 10 µM for input Cc1cc(-c2nnc(NCCO)o2)nc2c(C(F)(F)F)cc(C3CC3)cc12 [Compound 255]
[out] 99.4%

[in] // returns reported inhibition at 10 µM for input O=C(NCC1COCCN1)c1cc(C(F)F)c2cc(C3CC3)cc(C(F)(F)F)c2n1 (centres unmarked) [Compound 213]
[out] 88.7%

[in] // returns reported inhibition at 10 µM for input CCC(=O)CNC(=O)c1cc(Cl)c2cc(OC(F)F)cc(C(F)(F)F)c2n1 [Compound 205]
[out] 99.2%

[in] // returns reported inhibition at 10 µM for input Cc1cc(C(=O)NCc2ccccn2)nc2c(C(F)(F)F)cc(OC3CCCC3)cc12 [Compound 184]
[out] 96%

[in] // returns reported inhibition at 10 µM for input Cc1cc(-c2nnc(NCC3COCCN3)s2)nc2c(C(F)(F)F)cc(C3CC3)cc12 (centres unmarked) [Compound 299]
[out] 98%

[in] // returns reported inhibition at 10 µM for input Cc1cc(C(=O)NC[C@@H]2CC(O)CN2)nc2c(C(F)(F)F)cc(OC(F)F)cc12 (some centres unmarked) [Compound 191]
[out] 50.2%

[in] // returns reported inhibition at 10 µM for input Cc1cc(C(=O)NC(CO)c2ccccc2)nc2c(C(F)(F)F)cc(-c3ccccc3)cc12 (centres unmarked) [Compound 167]
[out] 87.5%

[in] // returns reported inhibition at 10 µM for input Cc1cc(-c2nnc(NCCCN3CCCCC3)o2)nc2c(C(F)(F)F)cc(C3CC3)cc12 [Compound 256]
[out] 99.4%

[in] // returns reported inhibition at 10 µM for input CCOCCNc1nnc(-c2cc(C)c3cc(OC)cc(C(F)(F)F)c3n2)o1 [Compound 276]
[out] 97.6%

[in] // returns reported inhibition at 10 µM for input Cc1cc(C(=O)NC[C@@H]2CC(F)(F)CCN2)nc2c(C(F)(F)F)cc(OC(F)F)cc12 (single isomer, unassigned) [Compound 202]
[out] 99.5%

[in] // returns reported inhibition at 10 µM for input CC#Cc1cc(C(F)(F)F)c2nc(C(=O)NCc3ccccn3)cc(C)c2c1 [Compound 148]
[out] 99.5%

[in] // returns reported inhibition at 10 µM for input Cc1cc(C(=O)NCc2ccccn2)nc2c(C(F)(F)F)cc(C3CC3(F)F)cc12 (centres unmarked) [Compound 154]
[out] 100%
